experiment_summary: small-molecule microarray binders of probe aNog, primary screen, biochemical, biotinylated probe, 635/667 nm fluorescence (AID 1115);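 further: probe is biotinylated aNog protein used at 0.15 µg/mL for 1 h at 4 C; z-score combines 667 nm fluorescence of each spot with its signal to noise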
condition: higher = more signal
value_kind: composite z-score
Keep the answer to the number alone.

// query GET /values?readout=composite z-score&item= O=C(NCC(O)CO)[C@@]1(CCS(=O)(=O)c2ccccc2)COC(c2ccc(OCCCO)cc2)=N1 (some centres not stated)
// result 1.81

// query What value of composite z-score has been reported for the following compound? COc1ccc(C#Cc2ccc3c(c2)[C@]2(C(=O)N3)[C@H](C(=O)Nc3nc4ccccc4s3)[C@H]3C(=O)O[C@H](c4ccccc4)[C@H](c4ccccc4)N3[C@@H]2c2ccccc2OCCO)cc1
// result -0.273

// query Entry C=CCC(OC(C)=O)[C@@H]1[C@@H](N(Cc2ccc(-c3cccc(C(F)(F)F)c3)o2)C(=O)c2cccc3ccccc23)c2cc(OCCCO)ccc2N1C(=O)Cc1ccc(OC)cc1 (some centres not stated) : reported composite z-score = ?
// result -0.083

// query What does the record list as composite z-score for CCCCC(=C=CC[C@H](O)c1ccc(OCCO)cc1)C[C@H](O)c1cc(Cl)cc(Cl)c1O ?
// result 0.452

// query What measured composite z-score goes with CC(C)=CCCC(C)=CC(O)C1C=CC2C(=O)N(c3ccccc3)C(=O)C2N1Nc1ccccc1F (configuration not stated) ?
// result -0.196

// query # lookup: composite z-score of CC(C)c1ccc(NN2C(C(O)Cc3ccccc3)C=CC3C(=O)N(c4ccccc4)C(=O)C32)cc1 (configuration not stated)
// result 1.53

// query Item under review: NC(=O)[C@H]1[C@@H]2C(=O)O[C@@H](c3ccccc3)[C@@H](c3ccccc3)N2[C@@H](c2ccc(O)cc2)[C@]12C(=O)Nc1ccccc12 . Reported composite z-score?
// result -0.0753

// query Need composite z-score, item CC(C)[Si]1(C(C)C)OCc2cc(-c3ccc(-c4ccc(Cl)c(Cl)c4)o3)nc(CCc3ccccc3)c21
// result 0.428

// query Give the measured composite z-score of COC(=O)C1=CC(CCCO)=CC(c2ccc(CN3CCCC3)cc2)N(Cc2cc3c(cc2Br)OCO3)C=C1C(=O)OC (configuration not stated) .
// result -0.603

// query Item under review: COc1cccc(/C=C(\C#N)C(=O)Nc2c(C)n(C)n(-c3ccccc3)c2=O)c1 . Reported composite z-score?
// result -0.0899

// query Need composite z-score of COc1cc(NN2C(C(O)c3cc(OC)c(OC)c(OC)c3)C=CC3C(=O)N(c4ccccc4)C(=O)C32)cc(OC)c1OC (configuration not stated) , thanks.
// result 0.756

// query Dear colleague, I am looking for the recorded composite z-score of the following compound: COCCOC(=O)N1C(=O)[C@@]2(c3ccccc31)[C@H](c1ccccc1OCCO)N1[C@H](c3ccccc3)[C@H](c3ccccc3)OC(=O)[C@H]1[C@@H]2C(=O)N1CCCCCCC1
// result 3.61

// query Reported composite z-score for Cc1ccccc1C(O)C1C=CC2C(=O)N(c3ccccc3)C(=O)C2N1Nc1ccc([N+](=O)[O-])cc1 (configuration not stated) : what is it?
// result 1.63

// query // returns reported composite z-score for input COc1ccc([Si](C)(C)[C@H]2[C@H](CCO)O[C@@]3(C(=O)N(Cc4ccccc4)c4ccc(N5C(=O)c6ccccc6Oc6ccccc65)cc43)[C@@H]2C)cc1
// result 0.195

// query Please report the recorded composite z-score for COc1ccc([Si](C)(C)[C@H]2[C@H](CCO)O[C@@]3(C(=O)N(Cc4ccc(N5C(=O)c6ccccc6Oc6ccccc65)cc4)c4ccccc43)[C@@H]2C)cc1 .
// result 0.0078

// query Recorded composite z-score for C=C[C@@H](OC)[C@H](OC(=O)Nc1ccc(OC)cc1)c1ccc(OC)c(O)c1 , please?
// result -0.45

// query GET /values?readout=composite z-score&item= COc1ccc(CCNC(=O)[C@@]2(Cc3ccccc3I)c3ccccc3C(=O)N(Cc3ccccc3Cl)[C@H]2c2ccc(CO)cc2)cc1
// result 0.371

// query Need composite z-score, item C=CCN1C(=O)[C@]2(O[C@H](CCO)[C@@H]([Si](C)(C)c3ccc(OC)cc3)[C@@H]2C)c2cc(N3C(=O)COc4ccccc43)ccc21
// result 0.0599

// query Item COc1cc2c(cc1OC)CN(C(=O)[C@@H]1[C@H]3C(=O)O[C@H](c4ccccc4)[C@H](c4ccccc4)N3[C@H](c3ccc(O)cc3)[C@@]13C(=O)Nc1ccc(C#CCCO)cc13)CC2 has what recorded composite z-score?
// result -0.102

// query Given the compound CN(C)C(=O)[C@@]1(Cc2ccccc2N=[N+]=[N-])N=C(c2ccc(OCCCO)cc2)O[C@H]1c1ccccc1 , what is its reported composite z-score?
// result -0.743

// query Need composite z-score of Cc1ccc(S[C@]2(C(=O)NC(C)C)CC(=O)N(Cc3ccccc3Cl)[C@@H]2c2ccc(CO)cc2)cc1 , thanks.
// result -0.429

// query Quick one: composite z-score of CCCCCN1CC=CC23O[C@@H]4/C=C\CCC(C)OC(=O)C4[C@H]2C(=O)N(CCCCCCO)[C@@H]3C1=O (some centres not stated) ?
// result -0.12

// query Consider the compound COCCOC(=O)N1C(=O)[C@@]2(c3cc(C#CCNC(N)=O)ccc31)[C@H](c1ccc(O)cc1)N1[C@H](c3ccccc3)[C@H](c3ccccc3)OC(=O)[C@H]1[C@@H]2C(N)=O and give its measured composite z-score.
// result -0.0585

// query Name the reported composite z-score value associated with the compound COC(=O)C(CC#Cc1ccc2c(c1)[C@]1(C(=O)N2)[C@H](C(=O)Nc2nc3ccccc3s2)[C@H]2C(=O)O[C@H](c3ccccc3)[C@H](c3ccccc3)N2[C@@H]1c1ccc(OCCO)cc1)C(=O)OC
// result 1

// query Would you kindly share the measured composite z-score for NC(=O)NCC#Cc1ccc2c(c1)[C@]1(C(=O)N2)[C@H](C(=O)N2CCN(c3ncccn3)CC2)[C@H]2C(=O)O[C@H](c3ccccc3)[C@H](c3ccccc3)N2[C@@H]1c1ccc(OCCO)cc1 ?
// result 0.833

// query Which composite z-score value is on record for COCCCNC(=O)[C@@]1(c2ccc([N+](=O)[O-])cc2)CC(=O)N(C(C)C)[C@@H]1c1ccc(CO)cc1 ?
// result -0.261

// query May I ask what composite z-score has been recorded for COC(=O)[C@@]1(Cc2ccc(OC)cc2)[C@H]2c3cc(C(=O)N4CCCC4)n(Cc4cc(C)n(C)n4)c3C[C@H]2CN1C(=O)c1ccccc1 ?
// result 0.352

meta.source: PubChem BioAssay
